test system: DU-145 prostate; assay: NCI tumour cell line growth inhibition, 48 h; in the data active = GI50 below about 0.43 µM; inactive = the rest
Outcomes: active, inactive

CCCCCCNC(=O)Oc1ccc(/C(=C(/C)Cc2ccc(OC)cc2)c2ccc(OCCN(C)C)cc2)cc1
inactive
COc1ccc(/C=C\c2cc(OC)c(OC)c(OC)c2)c(NS(=O)(=O)c2ccc(Cl)cc2)c1O
active
CC(=O)c1cccc(-c2cccc(-c3ccn(CCN4CCOCC4)n3)c2)c1
inactive
O=C(N/N=C/c1ccc(Cl)cc1)c1[nH]c2ccc(Cl)cc2c1-c1ccccc1
active
CNCCNc1nc2ccccc2c2c(=O)c3cc(F)ccc3sc12
inactive
Cc1cc2nc(-c3c(N)ncc(C#N)c3-c3ccc(Cl)cc3)[nH]c2cc1C
inactive
CCCCCCNC(=O)n1cc(F)c(=O)[nH]c1=O
inactive
CCCCN(CC)c1ncnc2ccc(Br)cc12
inactive
COc1cc2c(c(OC)c1OC)-c1ccc(O)c(=O)cc1[C@@H](NC(C)=O)CC2
inactive
C=C(C)[C@@H]1CC[C@]2(CO)CC[C@]3(C)[C@H](CC[C@@H]4[C@@](C)(CCCN)[C@H](C(=C)C)CC[C@]43C)[C@@H]12
inactive
Cn1cc(C2=C(c3cn(C)c4cc(N)ccc34)C(=O)NC2=O)c2ccccc21
inactive

###

tested on: HS 578T breast; experiment: NCI tumour cell line growth inhibition, 48 h
TGI: recorded values
measurement.type: TGI (µM)

C/C(=C(/c1ccc(O)cc1)c1ccc(Cl)cc1)c1ccccc1
1.67
COC(=O)[C@H]1[C@H]2C[C@@H]3c4[nH]c5cc(OC)ccc5c4CCN3C[C@H]2C[C@@H](OC(=O)/C=C/c2cc(OC)c(OC)c(OC)c2)[C@@H]1OC
39.5
CC12CC=CCC1CCC1C2CCC2(C)C(c3ccc(=O)oc3)CCC12O (stereo not given)
0.473

###

TGI: recorded values
test system: OVCAR-4 ovarian; assay: NCI tumour cell line growth inhibition, 48 h
measurement.type: TGI (µM)

COc1ccccc1NC(=O)C1=C(C)NC(C)=C(C(=O)Nc2ccccc2OC)C1c1ccc(N(C)C)cc1
91.2
N#C/C(=C1/c2cc([N+](=O)[O-])ccc2-c2c1cc([N+](=O)[O-])cc2[N+](=O)[O-])N1CCCCC1
69.7
COC(=O)C1Cc2c([nH]c3ccccc23)C(c2ccccc2O)N1Cc1ccccc1 (stereo not given)
33.6

###

test system: UO-31 renal; assay: NCI tumour cell line growth inhibition, 48 h
measurement.type: TGI

COc1ccccc1NC(=O)C1=C(C)NC(C)=C(C(=O)Nc2ccccc2OC)C1c1ccc(N(C)C)cc1
> 100 µM
O=C1C(Cl)=C(c2ccc([N+](=O)[O-])cc2)C(=O)c2c(O)cccc21
3.84 µM
CC(=O)Nc1ccc(/C=C2/NC(=S)N(/C=C3\C(=O)Oc4ccccc4C3=O)C2=O)cc1
> 100 µM
CC1(C)C=[N+]([O-])C(C)(C)N1O
> 10 µM
ClCc1ccc(C2OCCO2)cc1
> 56.2 µM
COC(=O)c1cc(C)ccc1/C=C1\Cc2c(C)cc(C)cc2C1=O
> 85.8 µM
CS(=O)(=O)[O-].CS(=O)(=O)[O-].NC1CCCCC1N.[Pt+4] (stereo unspecified)
> 100 µM
CCC[CH2][Sn]1([CH2]CCC)[O]C(=O)c2ccc(N)cc2[O]1
1.82 µM
COc1cc2oc(-c3ccc4c(c3)OCO4)c(OC)c(=O)c2c(O)c1OC
> 50 µM
COC(=O)/C=C1\C(=O)C=C2[C@@H]3C[C@H]4C[C@H](CC[C@@]4(C)N21)C3(C)NC(C)=O (stereo partly specified)
> 52.4 µM
COc1cc2oc(=O)cc(C)c2cc1OC
> 100 µM
Cc1ccc(/C=N\NC(=O)c2ccncc2)s1
> 100 µM
COc1cc(C)cc2c(-c3c(O)cc(O)c4c3C[C@H](C)N[C@H]4C)cc(-c3cc(-c4c(O)cc(O)c5c4C[C@H](C)N[C@H]5C)c4cc(C)cc(OC)c4c3O)c(O)c12
> 100 µM
COc1cc(CNC(=S)CCCCCCCCCCC(C)C)ccc1O
95.7 µM
COC(=O)C(CC(=O)c1c[nH]c2ccccc12)c1c[nH]c2ccccc12 (stereo unspecified)
39.3 µM
O=c1c2cc(Br)ccc2ncn1COCc1ccccc1
> 100 µM
CC1(C)[C@@H](OC(N)=O)C=C[C@]2(CO)[C@H]3CC[C@]4(C)[C@@H](c5ccc(=O)oc5)[C@@H](Cl)C[C@]4(O)C3=CC[C@@H]12
0.0134 µM
CCCCCCCCCCCCCC(=O)NCC(OCC)OCC
> 100 µM
CC(=O)O[C@H]1CCC2[C@@H]3CCC4NC(=O)C(C#N)C[C@]4(C)C3CC[C@@]21C (stereo partly specified)
> 10 µM
CC(C(=O)O)c1ccc(-c2ccccc2)c(F)c1 (stereo unspecified)
> 100 µM
CCOC(=O)c1c(-c2ccccc2)c(C(OC(c2ccccc2)c2c(-c3ccccc3)c(C(=O)OCC)n3ccccc23)c2ccccc2)c2ccccn12 (stereo unspecified)
> 100 µM
